# TARGET ENTITY: T1, human FOLR1 expressed on SKOV-3 ovarian carcinoma cells (human, UniProt P15328 25-234)
# T1 construct: Naturally expressed receptor on SKOV-3 cells; also called human FOLR1pos SKOV-3 cancer cells; human FOLR1-expressing cell line SKOV-3
# T1 sequence (P15328 25-234 limits assumed): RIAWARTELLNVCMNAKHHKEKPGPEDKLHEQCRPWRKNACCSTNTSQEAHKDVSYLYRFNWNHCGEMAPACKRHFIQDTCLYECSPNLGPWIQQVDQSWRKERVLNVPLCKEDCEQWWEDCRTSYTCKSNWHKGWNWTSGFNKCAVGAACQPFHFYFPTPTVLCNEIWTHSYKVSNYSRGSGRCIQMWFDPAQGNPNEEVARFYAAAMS
# ASSAY PROCEDURE: saturation binding of 131I-labelled untagged VHH on SKOV-3 cells
QUANTITY NAME: EC50 (nM)
Use nM as the unit, but write only the number.

Answered examples (2):
INSERT INTO assay_data (binder, unit, test_value) VALUES
  ('131I-labeled untagged A2-M28T-E90Q (VHH, [131I]SGMIB conjugated to lysine side-chain amine groups) VHH: DVQLVESGGGLVQAGGSLRLSCAADETKFSNYDLAWYRRAPGKQRELAAIITSGGSTNYPDSVKGRFTISRDNAKNTVYLQMNSLKPEDTAVYYCNALRPWPQFSDYWGQGTQVTVSS', 'nM', 4.8),
  ('131I-labeled untagged A2-K29Q-E90Q (VHH, [131I]SGMIB conjugated to lysine side-chain amine groups) VHH: DVQLVESGGGLVQAGGSLRLSCAADEMQFSNYDLAWYRRAPGKQRELAAIITSGGSTNYPDSVKGRFTISRDNAKNTVYLQMNSLKPEDTAVYYCNALRPWPQFSDYWGQGTQVTVSS', 'nM', 5.1);

## Input Using known records, supply EC50 for 131I-labeled untagged A1-D59E (VHH, [131I]SGMIB conjugated to lysine side-chain amine groups) VHH: DVQLVESGGGLVQPGGSLRLSCAASESIFSRNHMSWYRQAPGKQRELAAIITSEGNTNYPDSVKGRFTISRDNAKNTVYLQMNSLKPEDTAVYYCNTFGRSVAGFYDYWGQGTQVTVSS
## Output 2.1

## Input Using known records, supply EC50 for 131I-labeled untagged A2-K29R-E90Q (VHH, [131I]SGMIB conjugated to lysine side-chain amine groups) VHH: DVQLVESGGGLVQAGGSLRLSCAADEMRFSNYDLAWYRRAPGKQRELAAIITSGGSTNYPDSVKGRFTISRDNAKNTVYLQMNSLKPEDTAVYYCNALRPWPQFSDYWGQGTQVTVSS
## Output 3.6

## Input Using known records, supply EC50 for 131I-labeled untagged A2-M28A-E90Q (VHH, [131I]SGMIB conjugated to lysine side-chain amine groups) VHH: DVQLVESGGGLVQAGGSLRLSCAADEAKFSNYDLAWYRRAPGKQRELAAIITSGGSTNYPDSVKGRFTISRDNAKNTVYLQMNSLKPEDTAVYYCNALRPWPQFSDYWGQGTQVTVSS
## Output 4.1

## Input Using known records, supply EC50 for 131I-labeled untagged VHH A2 (VHH, [131I]SGMIB conjugated to lysine side-chain amine groups) VHH: DVQLVESGGGLVQAGGSLRLSCAADEMKFSNYDLAWYRRAPGKQRELAAIITSGGSTNYPDSVKGRFTISRDNAKNTVYLEMNSLKPEDTAVYYCNALRPWPQFSDYWGQGTQVTVSS
## Output 2.4

## Input Using known records, supply EC50 for 131I-labeled untagged A2-E90Q (VHH, [131I]SGMIB conjugated to lysine side-chain amine groups) VHH: DVQLVESGGGLVQAGGSLRLSCAADEMKFSNYDLAWYRRAPGKQRELAAIITSGGSTNYPDSVKGRFTISRDNAKNTVYLQMNSLKPEDTAVYYCNALRPWPQFSDYWGQGTQVTVSS
## Output 2.9

## Input Using known records, supply EC50 for 131I-labeled untagged A1-N64E (VHH, [131I]SGMIB conjugated to lysine side-chain amine groups) VHH: DVQLVESGGGLVQPGGSLRLSCAASESIFSRNHMSWYRQAPGKQRELAAIITSDGETNYPDSVKGRFTISRDNAKNTVYLQMNSLKPEDTAVYYCNTFGRSVAGFYDYWGQGTQVTVSS
## Output 2.5

meta.source: patent US20230340111A1
